Quick reference: Major metabolites observed in cellular extracts (% of total radioactivity) of the listed items.
- Tested on: monkey primary hepatocytes
- Assay procedure: Metabolic disposition of [^14C]-Compound 1 and [^14C]-2′-C-methyl guanosine in monkey primary hepatocytes (incubation medium, cellular extracts, nucleotide levels)
- Type: in vitro ADME, Cynomolgus monkey
- Study conditions: monkey hepatocytes Cy230; 10 μM [^14C]-2′-C-methyl guanosine; 24 h

IN: Record request: Major metabolites observed in cellular extracts (% of total radioactivity) value, item C[C@@]1(O)[C@H](O)[C@@H](COP(=O)(O)OP(=O)(O)OP(=O)(O)O)O[C@H]1n1cnc2c(=O)[nH]c(N)nc21
OUT: 26.6 % of total radioactivity

IN: Record request: Major metabolites observed in cellular extracts (% of total radioactivity) value, item C[C@@]1(O)[C@H](O)[C@@H](COP(=O)(O)OP(=O)(O)O)O[C@H]1n1cnc2c(=O)[nH]c(N)nc21
OUT: 8.41 % of total radioactivity

IN: Record request: Major metabolites observed in cellular extracts (% of total radioactivity) value, item C[C@@]1(O)[C@H](O)[C@@H](CO)O[C@H]1n1cnc2c(=O)[nH]c(N)nc21 [2′-C-methyl guanosine, 9-(2-C-methyl-β-D-ribofuranosyl)guanine, reference compound]
OUT: 65.0 % of total radioactivity
